From: patent US20240115557A1

Biological target: SpCas9 (Streptococcus pyogenes serotype M1, UniProt Q99ZW2)
Sequence (Q99ZW2 whole entry): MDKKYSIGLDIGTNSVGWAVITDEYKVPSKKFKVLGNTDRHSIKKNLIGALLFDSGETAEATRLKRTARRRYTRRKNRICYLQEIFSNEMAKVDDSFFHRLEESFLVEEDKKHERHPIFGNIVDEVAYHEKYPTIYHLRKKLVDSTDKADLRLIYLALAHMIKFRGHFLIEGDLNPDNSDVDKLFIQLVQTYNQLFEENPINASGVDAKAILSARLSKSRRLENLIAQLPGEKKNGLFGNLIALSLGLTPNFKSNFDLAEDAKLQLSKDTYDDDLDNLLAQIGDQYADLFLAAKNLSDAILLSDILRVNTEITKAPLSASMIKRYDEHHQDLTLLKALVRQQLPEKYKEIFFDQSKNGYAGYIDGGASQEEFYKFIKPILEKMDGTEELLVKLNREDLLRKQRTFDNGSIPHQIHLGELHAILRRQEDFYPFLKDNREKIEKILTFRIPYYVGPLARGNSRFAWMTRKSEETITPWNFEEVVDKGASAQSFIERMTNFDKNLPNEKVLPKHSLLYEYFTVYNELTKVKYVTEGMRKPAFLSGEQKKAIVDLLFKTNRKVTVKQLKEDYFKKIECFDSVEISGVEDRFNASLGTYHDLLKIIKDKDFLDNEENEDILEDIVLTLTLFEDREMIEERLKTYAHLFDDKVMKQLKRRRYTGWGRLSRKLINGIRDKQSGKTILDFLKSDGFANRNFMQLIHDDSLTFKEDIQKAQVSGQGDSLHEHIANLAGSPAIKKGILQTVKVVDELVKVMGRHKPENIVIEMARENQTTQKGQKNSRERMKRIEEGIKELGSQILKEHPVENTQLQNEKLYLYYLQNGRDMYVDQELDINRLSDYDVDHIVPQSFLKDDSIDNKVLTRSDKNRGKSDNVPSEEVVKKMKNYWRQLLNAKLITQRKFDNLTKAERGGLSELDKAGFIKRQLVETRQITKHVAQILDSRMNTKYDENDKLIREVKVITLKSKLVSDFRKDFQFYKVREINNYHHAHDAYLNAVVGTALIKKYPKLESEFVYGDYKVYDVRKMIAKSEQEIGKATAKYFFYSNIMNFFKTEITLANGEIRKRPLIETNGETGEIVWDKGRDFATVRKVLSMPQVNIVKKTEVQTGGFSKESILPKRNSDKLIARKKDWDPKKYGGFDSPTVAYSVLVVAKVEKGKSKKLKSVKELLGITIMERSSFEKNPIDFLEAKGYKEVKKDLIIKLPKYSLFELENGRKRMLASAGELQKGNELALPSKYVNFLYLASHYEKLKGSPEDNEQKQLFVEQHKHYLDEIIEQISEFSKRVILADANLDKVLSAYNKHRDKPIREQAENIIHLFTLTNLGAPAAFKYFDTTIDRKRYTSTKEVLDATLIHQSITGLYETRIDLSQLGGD
Assay: Strand displacement assay (SDA) / cumulative activity assay (CAA), SpCas9 primary screen
Format: biochemical
Settings: Primary Screen (150 min); replicate 2
attribute measured: Normalized Z score 2

Q: Any idea what its Normalized Z score 2 is? The compound is `COc1ccc(-c2ccc3ncc4c(c3c2)n(-c2ccc(N3CCNCC3)c(C(F)(F)F)c2)c(=O)n4C)cn1.O=C(O)C=CC(=O)O`
A: 0.34

Q: GET /values?readout=Normalized Z score 2&item= `O=C(N/N=C/c1ccc(O)c(O)c1O)c1cccc(S(=O)(=O)Nc2ccccc2Cl)c1`
A: 0.07

Q: Data request, read-out Normalized Z score 2, for `O=C(Nc1nc(-c2ccccc2)c(C(=O)c2ccccc2)s1)c1ccc2c(c1)OCCO2`
A: 0.04

Q: Please give the measured Normalized Z score 2 for this compound: Cc1ccc(C(C)NC(=O)c2cccc(Oc3cc(-c4ccccc4)ncn3)c2)cc1 (stereo not shown)
A: 0.29

###

Target: SpCas9 (Streptococcus pyogenes serotype M1)
Experiment: Strand displacement assay (SDA) / cumulative activity assay (CAA), SpCas9 primary screen
Assay type: biochemical
Settings: Primary Screen (150 min); average of replicates
Give Average Normalized Z score for every item shown.
No unit in the answer, please; the number alone is enough.

Q: Request the reported Average Normalized Z score associated with `Cc1nc2ccccc2c(C)c1CC(=O)N1CCN(c2ccc(O)cc2)CC1`
A: 0.10

Q: Please report the recorded Average Normalized Z score for `COc1ccc(-n2c(N(C(C)=O)C(C)=O)c(C#N)c3nc4ccccc4nc32)cc1` .
A: 0.16

Q: Given the compound `Cc1ncc(-c2ccnc(Nc3ccc(S(C)(=O)=O)cc3)n2)n1C(C)C` , what is its reported Average Normalized Z score?
A: 0.35

Q: What does the record list as Average Normalized Z score for `NC(=S)c1ccccn1` ?
A: 0.04

Q: Request the reported Average Normalized Z score associated with `N=C1N=CC(=NNc2cc(C(=O)O)ccc2Cl)S1`
A: 0.07

###

Hi there, I'd appreciate the recorded Z score Rep 2 for every entry that follows.
Molecular target: UniProt:J7RUA5
Sequence (J7RUA5 whole entry): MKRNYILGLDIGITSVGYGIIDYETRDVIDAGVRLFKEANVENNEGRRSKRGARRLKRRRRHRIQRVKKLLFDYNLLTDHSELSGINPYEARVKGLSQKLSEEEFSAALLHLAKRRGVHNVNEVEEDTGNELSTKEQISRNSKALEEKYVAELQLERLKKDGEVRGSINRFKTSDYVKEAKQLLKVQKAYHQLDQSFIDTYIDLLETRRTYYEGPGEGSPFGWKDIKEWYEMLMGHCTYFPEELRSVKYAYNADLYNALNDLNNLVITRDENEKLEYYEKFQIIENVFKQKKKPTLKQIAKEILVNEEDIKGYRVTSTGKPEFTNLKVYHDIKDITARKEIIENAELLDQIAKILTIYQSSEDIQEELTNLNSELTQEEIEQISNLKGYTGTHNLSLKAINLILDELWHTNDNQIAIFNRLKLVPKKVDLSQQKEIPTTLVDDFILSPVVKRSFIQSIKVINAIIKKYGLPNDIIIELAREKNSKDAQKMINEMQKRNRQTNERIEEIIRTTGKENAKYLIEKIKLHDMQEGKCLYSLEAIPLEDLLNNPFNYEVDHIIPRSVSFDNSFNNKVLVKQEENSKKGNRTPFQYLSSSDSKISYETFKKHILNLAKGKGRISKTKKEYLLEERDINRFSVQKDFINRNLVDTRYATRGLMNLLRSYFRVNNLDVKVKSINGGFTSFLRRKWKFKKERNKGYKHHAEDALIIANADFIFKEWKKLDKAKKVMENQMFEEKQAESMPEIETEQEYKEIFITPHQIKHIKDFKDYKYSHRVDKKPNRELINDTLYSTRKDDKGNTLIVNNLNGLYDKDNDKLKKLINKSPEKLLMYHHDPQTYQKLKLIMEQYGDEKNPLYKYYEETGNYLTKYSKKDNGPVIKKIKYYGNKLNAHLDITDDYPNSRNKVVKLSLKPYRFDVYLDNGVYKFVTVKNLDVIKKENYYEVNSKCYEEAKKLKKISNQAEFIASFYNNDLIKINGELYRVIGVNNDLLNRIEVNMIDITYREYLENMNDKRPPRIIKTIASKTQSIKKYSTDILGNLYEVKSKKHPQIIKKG
Experiment: eGFP secondary assay, SaCas9
Assay type: cell-based
Conditions: replicate 2, Zscore>3 selected as hit
Procedure: All hit compounds were moved forward into the secondary and tertiary screens, in which they were tested in cell-based assays. An eGFP assay is used to determine hits in cells as the secondary screen (eGFP assay). The eGFP secondary assay evaluated the hits identified from the primary screen. The compounds were judged off the % eGFP disruption to determine the Cas9 inhibition and the assay Zscore. […]

Q: Can you look up Z score Rep 2 on UniProt:J7RUA5 for COc1cccc(N2C(=O)c3cc4ccccc4n3CC2(C)C(=O)NC2CCCCC2)c1 (centres unmarked) [E234-0006] ?
A: 3.635

Q: Report Z score Rep 2 for O=C1c2ccccc2C(=O)c2oc(-c3ccc(F)cc3)nc21 [T0502-0200] tested on UniProt:J7RUA5.
A: 2.749

Q: Checklist item: Z score Rep 2 tested on UniProt:J7RUA5, entry Cc1nn(-c2ccccc2)c(C)c1CCc1nnc2sc(-c3ccc(N(C)C)cc3)nn12 [D727-0717] , value?
A: 7.065

Q: I'm curious: which Z score Rep 2 was measured for Cc1cc(-c2nn3c(-c4cccc(F)c4)nnc3s2)c2ccccc2n1 [D727-0417] tested on UniProt:J7RUA5?
A: 2.944

Q: What measured Z score Rep 2 is associated with CC(C)Cc1nnc2sc(-c3c[nH]c4ccccc34)nn12 [D727-0768] on UniProt:J7RUA5?
A: 6.231

###

Target: UniProtKB Q99ZW2
Test: Strand displacement assay (SDA) / cumulative activity assay (CAA), SpCas9 primary screen
Type: biochemical
Conditions: Primary Screen (150 min); replicate 2
So basically, if Normalized Z score 2 comes in under 0.07 it's Criterion met, and if it's 0.07 or more it's Criterion not met.

Q: Field: below-cutoff. Rule: recorded Normalized Z score 2 strictly less than 0.07. Subject: O=C(NC1CCCC1)c1cccc(Oc2cc(-c3ccccc3)ncn2)c1 [Compound L663-1002]
A: Criterion not met

Q: Strictly below 0.07 in Normalized Z score 2? NC1=C(c2nc3ccccc3s2)C(=O)CN1N=Cc1ccc(-c2ccc(S(=O)(=O)Nc3ncccn3)cc2)o1 [Compound T5371551]
A: Criterion not met

Q: Consider the compound NC(=S)c1ccccn1 [Compound T5211106] . Is its Normalized Z score 2 strictly less than 0.07?
A: Criterion met

Q: Hello, I'm reviewing records and need to know if Normalized Z score 2 of COc1ccc(C2CNC(=O)C2)cc1OC1CCCC1 (centres unmarked) [Compound S2127] is below 0.07. Could you check?
A: Criterion not met

###

Target: SpCas9 (Streptococcus pyogenes serotype M1)
Assay: eGFP disruption assay, SpCas9, U2OS.eGFP.PEST cells
Type: cell-based
Conditions: replicate 1
Numbered stars: 1 amine (or outer) side, 2 acyl side, 3 side chain; on linkers, the order of the positions; unused ones are H or OH. Bridge positions count the residues as written; N and C are the ends. Square brackets hold non-standard residues; d marks the D form. Peptide text beside a SMILES is read from it. I, II: the chains in the order shown. Actinocin(9to1) = Cc1c2oc3c(C)ccc(C(=O)[*:1])c3nc-2c(C(=O)[*:2])c(N)c1=O; NMeV = CN[C@H](C(=O)O)C(C)C; Sar = CNCC(=O)O
Output met for Z score Rep1 not less than -2; output not met otherwise.

Q: Given `COc1ccc(OC)c(CNC(=O)c2ccc(Oc3ccnc(-c4cccc(F)c4)n3)cc2)c1` , state whether its Z score Rep1 is at least -2.
A: met

Q: Is reported Z score Rep1 greater than or equal to -2 here: `COc1ccc(-c2ccc3ncc4c(c3c2)n(-c2ccc(N3CCNCC3)c(C(F)(F)F)c2)c(=O)n4C)cn1.O=C(O)C=CC(=O)O`
A: not met

Q: Does the reported Z score Rep1 for `CCCN1CCN(c2ccc(C(=O)O)cc2NC(=O)c2ccccc2Cl)CC1` fall at or above the -2 mark?
A: met

Q: Entry `CCN(Cc1ccccc1)c1ccc(NS(=O)(=O)c2ccc(OC)cc2)cc1C(=O)O` : is its Z score Rep1 no less than -2?
A: not met

Q: Given `CCOC(=O)C1=C(C)NN=C(Nc2cccc(C)c2C)S1` , state whether its Z score Rep1 is at least -2.
A: met

Q: Check this compound for Z score Rep1 at or above -2: `Brc1cccc(-c2nn3c(-c4cccnc4)nnc3s2)c1`
A: met

Q: Is the recorded value of Z score Rep1 equal to or greater than -2 for this compound? `C=Cc1ccc(CSC2=NS(=O)(=O)c3ccccc3N2)cc1`
A: met

Q: Check this compound for Z score Rep1 at or above -2: `NC1=C(c2nc3ccccc3s2)C(=O)CN1N=Cc1ccc(-c2ccc(S(=O)(=O)Nc3ncccn3)cc2)o1`
A: met

Q: Is the recorded value of Z score Rep1 equal to or greater than -2 for this compound? CCC(C)NC(=O)c1cccc(Oc2cc(-c3ccccc3)ncn2)c1 (stereo not shown)
A: met

Q: Please check the record `COc1ccc(Cc2nn3c(-c4cccnc4)nnc3s2)cc1OC` and state if its Z score Rep1 is at or above -2.
A: not met

Q: Is reported Z score Rep1 greater than or equal to -2 here: `Cc1ccccc1OCc1nn2c(C(C)(C)C)nnc2s1`
A: met

Q: Test whether the compound `CCn1c(=O)c(C(=O)Nc2nccc(C)n2)c(O)c2ccccc21` records Z score Rep1 of -2 or higher.
A: met

Q: Quick check: does `c1ccc(-c2nnc3sc(-c4cc5ccccc5o4)nn23)nc1` have Z score Rep1 greater than or equal to -2?
A: met

Q: Confirm if Z score Rep1 reported for the compound `Fc1cccc(-c2nnc3sc(CCCc4ccccc4)nn23)c1` is -2 or above.
A: met

Q: Does the reported Z score Rep1 for `Cc1nn(-c2ccccc2)c(C)c1CCc1nn2c(-c3cnccn3)nnc2s1` fall at or above the -2 mark?
A: met

Q: Decide: Z score Rep1 of `Cc1nc2ccccc2c(C)c1CC(=O)N1CCN(c2ccc(O)cc2)CC1` >= -2?
A: met

Q: Say whether `Cc1occc1-c1nnc2sc(-c3c[nH]c4ccccc34)nn12` shows Z score Rep1 of -2 or more.
A: met

Q: Test whether the compound `Cc1cccc(C(=O)Nc2ccccc2Sc2cc(C)nc3ncnn23)c1` records Z score Rep1 of -2 or higher.
A: not met

Q: In plain terms: is recorded Z score Rep1 at least -2 for `CNS(=O)(=O)c1ccc2nc(NC(=O)c3ccc(N4C(=O)CCC4=O)cc3)sc2c1` ?
A: not met

Q: Kindly determine if Z score Rep1 recorded for `CNC(=O)c1sc(=S)n2c1[nH]c(=O)c1cc(Br)ccc12` is above or exactly -2.
A: met

Q: Exam item: decide whether the reported Z score Rep1 for `Cc1nn(-c2ccccc2)c(C)c1CCc1nn2c(-c3ccncc3)nnc2s1` is at least -2.
A: met

Q: Could you verify whether the entry `Cc1nc2ccccc2n1Cc1nnc2sc(-c3cccnc3)nn12` shows Z score Rep1 of no less than -2?
A: not met

Q: Could you verify whether the entry `COc1ccc(-c2nn3c(-c4ccc5ccccc5n4)nnc3s2)cc1OC` shows Z score Rep1 of no less than -2?
A: met

Q: Please tell me: is the compound `CCC(=O)Nc1ccccc1Sc1cc(C)nc2ncnn12` at or over -2 in terms of Z score Rep1?
A: met

Q: Answer whether Z score Rep1 of `CC(C)NC(=O)CN1CCN(c2ccc(C(=O)O)cc2NC(=O)c2ccccc2Cl)CC1` is greater than or equal to -2.
A: not met

Q: Dear colleague, could you confirm whether `CC(C)(C)OC(=O)NCCOc1ccc(S(=O)(=O)CCC(=O)Nc2nc(-c3ccncc3)cs2)cc1` has Z score Rep1 at or above -2?
A: met

Q: Given `Brc1cccc(-c2nn3c(-c4ccccn4)nnc3s2)c1` , state whether its Z score Rep1 is at least -2.
A: met

Q: Entry `NS(=O)(=O)c1ccc(CCNC(=O)C2=Cc3sc4c(c3CS2)CCCC4)cc1` : is its Z score Rep1 no less than -2?
A: met

Q: Test whether the compound Cc1c2oc3c(C)ccc(C(=O)N[C@@H]4C(=O)N[C@H](C(C)C)C(=O)N5CCC[C@H]5C(=O)N(C)CC(=O)N(C)[C@@H](C(C)C)C(=O)O[C@@H]4C)c3nc-2c(C(=O)N[C@@H]2C(=O)N[C@H](C(C)C)C(=O)N3CCC[C@H]3C(=O)N(C)CC(=O)N(C)[C@@H](C(C)C)C(=O)O[C@@H]2C)c(N)c1=O [SAM001246846] (I: T[dV]P[Sar][NMeV] / II: T[dV]P[Sar][NMeV]; ester I:1-I:C, II:1-II:C; linker I:N-II:N via Actinocin(9to1)) records Z score Rep1 of -2 or higher.
A: not met
